A collection of substances and their measured % Inhibition
# Test system: human SMAD7 mRNA
# assay_details: Antisense inhibition of human SMAD7 mRNA expression in Hep3B cells by 3-10-3 cEt gapmers, 10,000 nM, electroporation (Example 2)
# Assay type: cell-based
# test_parameters: Hep3B cells, electroporation with 10,000 nM antisense oligonucleotide, approximately 24 hours, RTS5062, percent inhibition of SMAD7 mRNA relative to untreated control cells
Strand notation (5' to 3'): a small letter for the sugar, then the base; units joined by * are phosphorothioate-linked, units joined directly phosphodiester-linked; [ ] holds rarer units or linkages, { } end groups; capitals alone tell only the bases. k = constrained ethyl (cEt); [5mC] = 5-methylcytosine; d = 2'-deoxy (DNA)

{"substance": "799670 (antisense kT*k[5mC]*kT*dG*dA*dG*dA*d[5mC]*dT*dA*dT*dG*dA*k[5mC]*kA*kG) [compound 799670]", "% Inhibition, %": 51}
{"substance": "799586 (kG*kA*kG*dG*dA*dG*dG*d[5mC]*dA*d[5mC]*dT*d[5mC]*dA*kG*kG*k[5mC]; antisense) [compound 799586]", "% Inhibition, %": 50}
{"substance": "799690 (antisense kA*kG*k[5mC]*dT*dA*d[5mC]*dA*dG*dT*d[5mC]*dA*dG*dG*k[5mC]*kT*kT) [compound 799690]", "% Inhibition, %": 51}
{"substance": "799688 (antisense k[5mC]*kA*k[5mC]*d[5mC]*dA*d[5mC]*d[5mC]*d[5mC]*dA*dA*dA*dG*d[5mC]*k[5mC]*kT*kG) [compound 799688]", "% Inhibition, %": 50}
{"substance": "799763 (antisense kT*kG*kT*d[5mC]*d[5mC]*dT*dA*dA*dA*dG*dA*d[5mC]*dG*kG*k[5mC]*kT) [compound 799763]", "% Inhibition, %": 50}

###

# Test system: human SMAD7 mRNA
# assay_details: Antisense inhibition of human SMAD7 mRNA expression in Hep3B cells by 3-10-3 cEt gapmers, 10,000 nM, electroporation (Example 2)
# Format: cell-based
# test_parameters: SMAD7 mRNA, Hep3B cells, 10,000 nM antisense oligonucleotide, electroporation, approximately 24 hours, primer probe set RTS5062, relative to untreated control cells
Strand notation (5' to 3'): a small letter for the sugar, then the base; units joined by * are phosphorothioate-linked, units joined directly phosphodiester-linked; [ ] holds rarer units or linkages, { } end groups; capitals alone tell only the bases. k = constrained ethyl (cEt); [5mC] = 5-methylcytosine; d = 2'-deoxy (DNA)
A collection of substances and their measured % Inhibition
quantity_measured: % Inhibition (%)

{"substance": "829793 (kT*k[5mC]*kT*dT*d[5mC]*d[5mC]*d[5mC]*dG*dT*dA*dA*dG*dA*kT*kT*k[5mC]; antisense) [compound 829793]", "target_entity": "human SMAD7 mRNA", "quantity_measured": "% Inhibition", "measurement_unit": "%", "reported_value": 41}
{"substance": "772711 (kA*kA*kA*d[5mC]*dA*d[5mC]*d[5mC]*dA*dA*dT*d[5mC]*dT*dT*kG*kT*kG; antisense) [compound 772711]", "target_entity": "human SMAD7 mRNA", "quantity_measured": "% Inhibition", "measurement_unit": "%", "reported_value": 0}
{"substance": "829751 (antisense kG*k[5mC]*kA*dG*d[5mC]*dT*d[5mC]*dG*d[5mC]*d[5mC]*dT*d[5mC]*d[5mC]*kT*k[5mC]*k[5mC]) [compound 829751]", "target_entity": "human SMAD7 mRNA", "quantity_measured": "% Inhibition", "measurement_unit": "%", "reported_value": 40}
{"substance": "829783 (antisense kG*kA*kT*d[5mC]*d[5mC]*dG*dG*d[5mC]*d[5mC]*dA*d[5mC]*d[5mC]*dT*kG*kA*kA) [compound 829783]", "target_entity": "human SMAD7 mRNA", "quantity_measured": "% Inhibition", "measurement_unit": "%", "reported_value": 52}
{"substance": "790775 (kT*kA*k[5mC]*dA*dA*dG*dG*dT*dG*dA*dA*dA*dG*kT*kT*kA; antisense) [compound 790775]", "target_entity": "human SMAD7 mRNA", "quantity_measured": "% Inhibition", "measurement_unit": "%", "reported_value": 7}
{"substance": "790491 (kG*kT*kA*dA*dG*dA*dT*dT*d[5mC]*dA*d[5mC]*dA*dG*k[5mC]*kA*kA; antisense) [compound 790491]", "target_entity": "human SMAD7 mRNA", "quantity_measured": "% Inhibition", "measurement_unit": "%", "reported_value": 56}
{"substance": "799572 (kA*k[5mC]*k[5mC]*dA*dT*d[5mC]*dT*dA*dA*d[5mC]*dA*dA*d[5mC]*kA*kT*k[5mC]; antisense) [compound 799572]", "target_entity": "human SMAD7 mRNA", "quantity_measured": "% Inhibition", "measurement_unit": "%", "reported_value": 55}
{"substance": "790521 (kG*kG*k[5mC]*dT*dG*dT*dA*d[5mC]*dG*d[5mC]*d[5mC]*dT*dT*k[5mC]*kT*k[5mC]; antisense) [compound 790521]", "target_entity": "human SMAD7 mRNA", "quantity_measured": "% Inhibition", "measurement_unit": "%", "reported_value": 19}
{"substance": "829762 (antisense k[5mC]*k[5mC]*kT*dT*d[5mC]*dA*dG*dA*dT*d[5mC]*d[5mC]*dG*d[5mC]*k[5mC]*kT*k[5mC]) [compound 829762]", "target_entity": "human SMAD7 mRNA", "quantity_measured": "% Inhibition", "measurement_unit": "%", "reported_value": 67}
{"substance": "829790 (k[5mC]*k[5mC]*k[5mC]*dG*dT*dA*dA*dG*dA*dT*dT*d[5mC]*dA*k[5mC]*kA*kG; antisense) [compound 829790]", "target_entity": "human SMAD7 mRNA", "quantity_measured": "% Inhibition", "measurement_unit": "%", "reported_value": 51}
{"substance": "829737 (antisense kA*kG*kG*dA*dG*d[5mC]*dG*dA*dA*d[5mC]*dA*dT*dG*kA*k[5mC]*k[5mC]) [compound 829737]", "target_entity": "human SMAD7 mRNA", "quantity_measured": "% Inhibition", "measurement_unit": "%", "reported_value": 52}
{"substance": "772762 (kA*kT*kT*dT*dT*dG*d[5mC]*dT*dA*d[5mC]*d[5mC]*dT*dA*kA*kT*kG; antisense) [compound 772762]", "target_entity": "human SMAD7 mRNA", "quantity_measured": "% Inhibition", "measurement_unit": "%", "reported_value": 11}
{"substance": "801138 (antisense kG*kT*kT*dA*dG*dG*dA*d[5mC]*d[5mC]*dT*dG*dG*dG*kA*kA*k[5mC]) [compound 801138]", "target_entity": "human SMAD7 mRNA", "quantity_measured": "% Inhibition", "measurement_unit": "%", "reported_value": 6}
{"substance": "772614 (kG*kA*k[5mC]*dT*d[5mC]*dT*dT*dG*dT*dT*dG*dT*d[5mC]*k[5mC]*kG*kA; antisense) [compound 772614]", "target_entity": "human SMAD7 mRNA", "quantity_measured": "% Inhibition", "measurement_unit": "%", "reported_value": 43}
{"substance": "829745 (antisense k[5mC]*kG*kG*dG*d[5mC]*dG*d[5mC]*dA*d[5mC]*dG*dG*d[5mC]*dT*k[5mC]*k[5mC]*kT) [compound 829745]", "target_entity": "human SMAD7 mRNA", "quantity_measured": "% Inhibition", "measurement_unit": "%", "reported_value": 19}
{"substance": "829738 (antisense kT*kA*kA*dG*dG*dA*dG*d[5mC]*dG*dA*dA*d[5mC]*dA*kT*kG*kA) [compound 829738]", "target_entity": "human SMAD7 mRNA", "quantity_measured": "% Inhibition", "measurement_unit": "%", "reported_value": 49}
{"substance": "790647 (k[5mC]*kG*k[5mC]*dG*dA*dG*dG*d[5mC]*dG*dG*dT*dG*dA*kT*kT*kG; antisense) [compound 790647]", "target_entity": "human SMAD7 mRNA", "quantity_measured": "% Inhibition", "measurement_unit": "%", "reported_value": 24}
